assay: Cell Viability - LYMP2-019 (AID 973); conditions: LYMP2-019 lymphoblastoid cell line viability; series mostly up to 92.2 µM;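 further: cells exposed to compound for 24 h at 37 °C; nearly all actives have a fitted effect of over 55% in size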
Inconclusive results are not listed. The source made the active and inactive calls. The call rests on the fitted dose curve; in most records, active means well fitted cell-killing curve with a large enough effect; inconclusive means small, poorly fitted or top-dose-only effect; inactive means flat fitted curve, though single readings scatter.
Mark one answer only. Choices: True = active, False = inactive

1) O=CCCCC=O
True
2) Nc1ccn([C@H]2CS[C@@H](CO)O2)c(=O)n1
False

Now examine the next entry.
How did this test come out for `CCCCC/C=C\C/C=C\CCCCCCCC(=O)O` ?
False

* * *

assay: qHTS drug screen for cell cycle checkpoint inhibitors in PARPi-resistant BRCA-mutant ovarian cancer cell lines. (AID 1963452); conditions: PEO1/OlaR viability, CellTiter-Glo luminescence, 96 h; measured here: PEO1 parental Z-AUC; stronger effect = lower value
Entries and their measured Z-AUC follow.
// no unit string in output, number only

1. C[C@H](CCC(=O)O)[C@H]1CC[C@H]2[C@@H]3[C@H](O)C[C@@H]4C[C@H](O)CC[C@]4(C)[C@H]3CC[C@]12C
0.809

So what does the record say about Z-AUC for `COc1cc2c(cc1O)CCN[C@]21CS[C@@H]2c3c(OC(C)=O)c(C)c4c(c3[C@H](COC1=O)N1[C@@H]2[C@H]2c3c(cc(C)c(OC)c3O)C[C@@H]([C@@H]1O)N2C)OCO4` ?
-2.17

So what does the record say about Z-AUC for `Cc1nn(C)c(COc2ccc(N3CCN(S(=O)(=O)N(C)C)CC3)cc2)c1-c1cccc2c(CCCOc3cccc4ccccc34)c(C(=O)O)n(CCN3CCOCC3)c12` ?
0.77

So what does the record say about Z-AUC for `Cc1ccc(C(=O)Nc2ccc(Oc3cc4cnn(C)c4cc3-c3cn[nH]c3)c(F)c2)c(=O)n1-c1ccc(F)cc1` ?
0.144

So what does the record say about Z-AUC for `CN(C)C/C=C/C(=O)Nc1ccc(C(=O)Nc2cccc(Nc3ncc(Cl)c(-c4c[nH]c5ccccc45)n3)c2)cc1` ?
-3.23

So what does the record say about Z-AUC for `O=c1ccn([C@@H]2O[C@H](CO)[C@@H](O)[C@H]2O)c(=O)[nH]1` ?
1.05

So what does the record say about Z-AUC for `CCCCN(CCCC)C(=O)CN1C[C@H](c2ccc3c(c2)OCO3)[C@@H](C(=O)O)[C@@H]1c1ccc(OC)cc1` ?
0.661

So what does the record say about Z-AUC for `O=C(C1CC1)N1CC[C@@H](Cc2n[nH]c(=O)n2-c2ccc(-c3ccc4occc4c3)cc2)C1` ?
0.792
